- TARGET DESC: T1, hu-IL-36α (human IL-36α, N-terminally truncated active form K6-F158) (human, UniProt Q9UHA7 6-158)
- T1 construct: Purification tag cleaved off; Biotinylated where captured (SPR, some ELISAs); also called hu-IL-36a
- T1 sequence: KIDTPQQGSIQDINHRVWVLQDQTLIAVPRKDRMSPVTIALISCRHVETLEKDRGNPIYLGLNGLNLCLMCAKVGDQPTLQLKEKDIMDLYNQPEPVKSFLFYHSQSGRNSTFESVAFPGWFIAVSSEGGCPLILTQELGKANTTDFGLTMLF
- ASSAY TEXT: ELISA, yeast Fab supernatant, anti-Fab-HRP
Decision: ELISA OD450 compared against 2 OD450; not below it gives TRUE, below it gives FALSE.

Answered examples (3):
Is ELISA OD450 for mAb2.0 Fab (yeast clone culture supernatant) (Fab, V domains shown, Human Fab secreted by the yeast clone, not purified) VH: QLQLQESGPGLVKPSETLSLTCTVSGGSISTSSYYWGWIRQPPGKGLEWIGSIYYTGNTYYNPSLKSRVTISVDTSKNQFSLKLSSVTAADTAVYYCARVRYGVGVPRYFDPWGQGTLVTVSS VL: QSVLTQPPSVSGAPGQRVTISCTGSSSNIGAHYDVHWYQQLPGTAPKLLIYGNDNRPSGVPDRFSGSKSGTSASLAITGLQAEDEADYYCQSYDYSLSGYVFGGGTKLTVL at or above 2 OD450?
TRUE

Hello, I need to know if mAb4.0 Fab (yeast clone culture supernatant) (Fab, V domains shown, Human Fab secreted by the yeast clone, not purified) VH: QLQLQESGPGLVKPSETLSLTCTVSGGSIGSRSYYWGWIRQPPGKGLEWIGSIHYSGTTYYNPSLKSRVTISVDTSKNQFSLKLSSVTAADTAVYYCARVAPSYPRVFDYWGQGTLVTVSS VL: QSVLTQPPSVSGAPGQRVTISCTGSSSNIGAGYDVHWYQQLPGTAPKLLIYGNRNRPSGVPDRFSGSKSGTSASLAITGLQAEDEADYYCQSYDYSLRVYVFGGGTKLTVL has measured ELISA OD450 not below 2 OD450. Thanks!
TRUE

Is reported ELISA OD450 greater than or equal to 2 OD450 here: mAb3.0 Fab (yeast clone culture supernatant) (Fab, V domains shown, Human Fab secreted by the yeast clone, not purified) VH: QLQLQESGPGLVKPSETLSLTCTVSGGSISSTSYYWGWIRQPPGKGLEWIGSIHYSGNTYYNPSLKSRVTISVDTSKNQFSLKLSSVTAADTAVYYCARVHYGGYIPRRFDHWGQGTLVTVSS VL: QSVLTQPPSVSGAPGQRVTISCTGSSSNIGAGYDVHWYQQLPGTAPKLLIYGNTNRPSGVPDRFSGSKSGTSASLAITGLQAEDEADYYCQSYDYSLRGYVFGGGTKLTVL
FALSE

Now for another entry.
Reported ELISA OD450 at or above 2 OD450? mAb1.0 Fab (yeast clone culture supernatant) (Fab, V domains shown, Human Fab secreted by the yeast clone, not purified) VH: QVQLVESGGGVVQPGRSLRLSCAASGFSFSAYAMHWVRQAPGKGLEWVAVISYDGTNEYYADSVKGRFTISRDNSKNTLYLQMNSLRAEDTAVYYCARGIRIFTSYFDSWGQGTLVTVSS VL: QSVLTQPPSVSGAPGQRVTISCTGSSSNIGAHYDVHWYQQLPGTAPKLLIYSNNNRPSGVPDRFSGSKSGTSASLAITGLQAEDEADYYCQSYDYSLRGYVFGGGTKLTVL
FALSE
